biological target: E-selectin/IgG construct (Homo sapiens, UniProt P16581); construct: fused on or other part: IgG Fc part (human, since it is captured by goat anti-human Fc antibody), fused on as a capture handle; test: BIAcore SPR ranking procedure at a single concentration (relative binding affinity); conditions: SPR signal at single concentration 0.05 μM divided by molecular weight, normalized to internal standard; KD larger than for reference compound 64, however below 135 nM; read-out: KD values (relative* binding affinities, ranking procedure)
Sequence (P16581 22-175 limits assumed): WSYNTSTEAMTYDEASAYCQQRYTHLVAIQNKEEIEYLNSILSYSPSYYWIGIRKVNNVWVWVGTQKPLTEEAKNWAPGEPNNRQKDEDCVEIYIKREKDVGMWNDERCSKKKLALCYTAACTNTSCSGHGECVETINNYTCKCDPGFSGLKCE
Item-by-item account of Kd
measurement-kind: Kd

molecule | tested-target | value-measured
C[C@@H]1O[C@@H](O[C@@H]2[C@@H](C)C[C@@H](C(=O)NCCCc3cn(CCn4ccc5cc([N+](=O)[O-])ccc54)nn3)C[C@H]2O[C@@H]2O[C@H](CO)[C@H](O)[C@H](O[C@@H](CC3CCCCC3)C(=O)O)[C@H]2OC(=O)c2ccccc2)[C@@H](O)[C@H](O)[C@@H]1O [Product 65] | E-selectin/IgG construct (Homo sapiens, UniProt P16581) | > 89 nM
C[C@@H]1O[C@@H](O[C@@H]2[C@@H](C)C[C@@H](C(=O)NCc3cn(CCCCn4ccc5cc([N+](=O)[O-])ccc54)nn3)C[C@H]2O[C@@H]2O[C@H](CO)[C@H](O)[C@H](O[C@@H](CC3CCCCC3)C(=O)O)[C@H]2OC(=O)c2ccccc2)[C@@H](O)[C@H](O)[C@@H]1O [Product 59] | E-selectin/IgG construct (Homo sapiens, UniProt P16581) | > 89 nM
C[C@@H]1O[C@@H](O[C@@H]2[C@@H](C)C[C@@H](C(=O)NCCc3cn(CCCn4ccc5cc([N+](=O)[O-])ccc54)nn3)C[C@H]2O[C@@H]2O[C@H](CO)[C@H](O)[C@H](O[C@@H](CC3CCCCC3)C(=O)O)[C@H]2OC(=O)c2ccccc2)[C@@H](O)[C@H](O)[C@@H]1O [Product 62] | E-selectin/IgG construct (Homo sapiens, UniProt P16581) | > 89 nM

----------
Item-by-item account of Kd
molecular target: E-selectin/IgG construct (Homo sapiens, UniProt P16581); construct: fused on or other part: IgG Fc part (human, since it is captured by goat anti-human Fc antibody), fused on as a capture handle; test: BIAcore surface plasmon resonance (SPR)-based assay, serial dilutions of the ligand (absolute KD); conditions: twofold serial dilutions, 600 s association/600 s dissociation, HBS-P + 20 mm calcium + DMSO 5% v/v, read-out: KD values (absolute binding affinities)

compound | unit-abbreviation | Kd
C[C@@H]1O[C@@H](O[C@@H]2[C@@H](C)C[C@@H](C(=O)NCc3cn(CCCn4ccc5cc([N+](=O)[O-])ccc54)nn3)C[C@H]2O[C@@H]2O[C@H](CO)[C@H](O)[C@H](O[C@@H](CC3CCCCC3)C(=O)O)[C@H]2OC(=O)c2ccccc2)[C@@H](O)[C@H](O)[C@@H]1O [Product 58] | nM | 57
CC1CC(C(=O)NCCCN2CCN(CCCn3ccc4cc([N+](=O)[O-])ccc43)CC2)C[C@@H](O[C@@H]2OC(CO)[C@H](O)C(O[C@@H](CC3CCCCC3)C(=O)O)C2OC(=O)c2ccccc2)C1O[C@@H]1OC(C)[C@@H](O)C(O)C1O (stereo partly shown) [Product 82] | nM | 110
C[C@@H]1O[C@@H](O[C@@H]2[C@@H](C)C[C@@H](C(=O)NCCc3cn(CCCCn4ccc5cc([N+](=O)[O-])ccc54)nn3)C[C@H]2O[C@@H]2O[C@H](CO)[C@H](O)[C@H](O[C@@H](CC3CCCCC3)C(=O)O)[C@H]2OC(=O)c2ccccc2)[C@@H](O)[C@H](O)[C@@H]1O [Product 63] | nM | 49
C[C@@H]1O[C@@H](O[C@@H]2[C@@H](C)C[C@@H](C(=O)NCCCc3cn(CCCn4ccc5cc([N+](=O)[O-])ccc54)nn3)C[C@H]2O[C@@H]2O[C@H](CO)[C@H](O)[C@H](O[C@@H](CC3CCCCC3)C(=O)O)[C@H]2OC(=O)c2ccccc2)[C@@H](O)[C@H](O)[C@@H]1O [Product 66] | nM | 30

----------
biological target: E-selectin/IgG construct (Homo sapiens, UniProt P16581); construct: fused on or other part: IgG Fc part (human, since it is captured by goat anti-human Fc antibody), fused on as a capture handle; assay: BIAcore SPR ranking procedure at a single concentration (relative binding affinity); conditions: SPR signal at single concentration 0.05 μM divided by molecular weight, normalized to internal standard; KD larger than for reference compound 64, however below 135 nM; read-out: KD values (relative* binding affinities, ranking procedure)

entry-smiles | Kd
C[C@@H]1O[C@@H](O[C@@H]2[C@@H](C)C[C@@H](C(=O)NCCCc3cn(CCCn4ccc5cc(N)ccc54)nn3)C[C@H]2O[C@@H]2O[C@H](CO)[C@H](O)[C@H](O[C@@H](CC3CCCCC3)C(=O)O)[C@H]2OC(=O)c2ccccc2)[C@@H](O)[C@H](O)[C@@H]1O | > 89 nM
C[C@@H]1O[C@@H](O[C@@H]2[C@@H](C)C[C@@H](C(=O)NCCCc3cn(CCCn4ccc5cc(NC(=O)COCCOCCN)ccc54)nn3)C[C@H]2O[C@@H]2O[C@H](CO)[C@H](O)[C@H](O[C@@H](CC3CCCCC3)C(=O)O)[C@H]2OC(=O)c2ccccc2)[C@@H](O)[C@H](O)[C@@H]1O | > 89 nM
C[C@@H]1O[C@@H](O[C@@H]2[C@@H](C)C[C@@H](C(=O)NCCc3cn(CCn4ccc5cc([N+](=O)[O-])ccc54)nn3)C[C@H]2O[C@@H]2O[C@H](CO)[C@H](O)[C@H](O[C@@H](CC3CCCCC3)C(=O)O)[C@H]2OC(=O)c2ccccc2)[C@@H](O)[C@H](O)[C@@H]1O | > 89 nM

----------
target: E-selectin/IgG construct (Homo sapiens, UniProt P16581); construct: fused on or other part: IgG Fc part (human, since it is captured by goat anti-human Fc antibody), fused on as a capture handle; experiment: BIAcore SPR ranking procedure at a single concentration (relative binding affinity); conditions: SPR signal at single concentration 0.05 μM divided by molecular weight, normalized to internal standard; KD larger than for reference compound 64, however below 135 nM; read-out: KD values (relative* binding affinities, ranking procedure)
pKd: −log10 of the molar value.

entry-smiles | pKd
CC(=O)Nc1ccc2c(ccn2CCCn2cc(CCCNC(=O)[C@@H]3C[C@H](C)[C@@H](O[C@@H]4O[C@@H](C)[C@@H](O)[C@@H](O)[C@@H]4O)[C@H](O[C@@H]4O[C@H](CO)[C@H](O)[C@H](O[C@@H](CC5CCCCC5)C(=O)O)[C@H]4OC(=O)c4ccccc4)C3)nn2)c1 | < 7.05
C[C@@H]1O[C@@H](O[C@@H]2[C@@H](C)C[C@@H](C(=O)NCCCc3cn(CCCCn4ccc5cc([N+](=O)[O-])ccc54)nn3)C[C@H]2O[C@@H]2O[C@H](CO)[C@H](O)[C@H](O[C@@H](CC3CCCCC3)C(=O)O)[C@H]2OC(=O)c2ccccc2)[C@@H](O)[C@H](O)[C@@H]1O | < 7.05
C[C@@H]1O[C@@H](O[C@@H]2[C@@H](C)C[C@@H](C(=O)NCc3cn(CCn4ccc5cc([N+](=O)[O-])ccc54)nn3)C[C@H]2O[C@@H]2O[C@H](CO)[C@H](O)[C@H](O[C@@H](CC3CCCCC3)C(=O)O)[C@H]2OC(=O)c2ccccc2)[C@@H](O)[C@H](O)[C@@H]1O | < 7.05
